Test system: NCI-H226 lung
assay remarks: NCI-60 one-dose screen, 48 h (100 = growth as untreated, 0 = no growth, -100 = all killed)
stated conditions: 10 µM
The panel holds about 83,000 compounds, 20% with a hit somewhere; the sample as a whole holds those more often.
Class key for growth values: 1: < 20%; 2: ≥ 20% and < 70%; 3: ≥ 70%

compound | class name
COc1cc2oc(-c3cccc(C(=O)Nc4ccc(Cl)cc4)c3)cc(=O)c2c(OCCN)c1OC | 1
O=C(CSc1nc2ccccc2c(=O)n1-c1ccc(Cl)cc1)Nc1ccc(-c2nc3ccccc3[nH]2)cc1 | 2
COc1ccc(C2OC[C@@]3(C)C4CC[C@]5(C)C(CC=C6C7CC(C)(C)CC[C@]7(C(=O)O)CC[C@]65C)[C@@]4(C)C[C@@H](O)[C@@H]3O2)cc1 (stereo not given in full) | 3
O=C(c1ccc(Cl)cc1)C(c1c[nH]c2ccccc12)c1c[nH]c2ccccc12 | 1
COc1cccc(O)c1/C=C1\SCc2cc3c(OC)cccc3[o+]c21 | 3
O=C(Nc1ccc(Oc2ncnc3scc(Nc4n[nH]c(=S)s4)c23)cc1)C1(C(=O)Nc2cccc(C(F)(F)F)c2)CC1 | 3
O=C(CC(=O)Nc1ccc(Oc2ncnc3scc(Nc4n[nH]c(=S)s4)c23)cc1)Nc1ccc(Br)cc1 | 3
CC1[C@H]2[C@H](C[C@H]3[C@@H]4CC=C5c6sc(Nc7cccc(Cl)n7)nc6CC[C@]5(C)[C@H]4CC[C@@]32C)O[C@]12CC[C@@H](C)CO2 (stereo not given in full) | 3
O=[N+]([O-])c1cccc(-c2nnc3c(/C=C/c4ccccc4O)nc4ccccc4n23)c1 | 2
Cn1cc(/C=C(/SS/C(=C/c2cn(C)c3cccc(C(=O)O)c23)C(=O)O)C(=O)O)c2c(C(=O)O)cccc21 | 3
O=C(Nc1ccc(OCc2ccc(F)cc2)cc1)Nc1ccc(Cl)c(C(F)(F)F)c1 | 1
C#C[C@]1(O)CC[C@H]2[C@@H]3CC=C4c5sc(Nc6cc(C)cc(C)n6)nc5CC[C@]4(C)[C@H]3CC[C@@]21C | 1
C#CCOc1cc(N(CC)CC)ccc1C(C(=O)NC(C)(C)C)N(C(=O)C1CCc2cc(F)ccc2O1)c1ccc(F)cc1F (stereo not given) | 2
Nc1nnc(-c2c[nH]c3ncc(Br)cc23)c(-c2c[nH]c3ccc(Br)cc23)n1 | 2
Cn1cc(-c2nnc(N)nc2-c2c[nH]c3ccc(F)cc23)c2cc(Br)cnc21 | 3
O=C(c1ccccc1)c1ccc2nc(-c3ccccc3Br)[nH]c2c1 | 1
COc1cc2oc(-c3cccc(C(=O)Nc4ccc(Cl)cc4)c3)cc(=O)c2c(OCCNC(=O)[C@@H](N)CO)c1OC | 3
COc1ccc(C2c3sc4ccc(C)cc4c3Oc3nc[nH]c(=O)c32)cc1 (stereo not given) | 3
COc1ccc(NCc2cn(-c3ccc(C(=O)O)cc3)nc2-c2ccc(F)cc2)cc1C(F)(F)F | 2
COc1cc(-c2nc3ccc(C)cc3[nH]2)ccc1OCc1nnc(-c2ccccc2Br)o1 | 2
COc1cc(C2CC(c3ccccc3)=Nc3c(N)nc(N)nc3N2)ccc1Oc1nc(NCCO)nc(N2CCOCC2)n1 (stereo not given) | 3
CC1(C)CC[C@]2(C(=O)O)CC[C@]3(C)C(=CCC4[C@@]5(C)C[C@@H](O)[C@@H]6OC(c7cccc(F)c7)OC[C@@]6(C)C5CC[C@]43C)C2C1 (stereo not given in full) | 2
COc1ccc(Cc2nn(CC(=O)N/N=C/c3ccc(Br)cc3)c(=O)c3c(C)noc23)cc1 | 2
Cc1cc(N=C2NC(=O)/C(=C/c3cc(C(C)(C)C)c(O)c(C(C)(C)C)c3)S2)n[nH]1 | 1
Fc1ccc(-c2csc(Nc3cccc(Nc4nc(-c5ccc(F)cc5)cs4)c3)n2)cc1 | 2
O=C(Nc1ccc(OCc2ccc(Cl)cc2)cc1)Nc1ccc(Cl)c(C(F)(F)F)c1 | 1
Cn1cc(-c2cc3nc(-c4c[nH]c5ccccc45)cc(N)n3n2)c2cc(Cl)ccc21 | 1
CCOC(=O)c1ccc(NC(=O)CSC(CC(=O)c2sc(Nc3ccccn3)nc2C)c2ccccc2F)cc1 (stereo not given) | 1
Fc1ccc(/C=C/c2nc3ccccc3n3c(-c4ccc(Cl)cc4)nnc23)cc1 | 3
Cn1cc(-c2nc(N)nnc2-c2c[nH]c3ccccc23)c2cc(Br)cnc21 | 1
Cc1ccc2c(c1)C(=O)/C(=C/c1ccc([N+](=O)[O-])cc1)S2 | 2
COc1ccc(OC)c(-n2cc(C#N)c(N)c2C(=O)c2ccc(Cl)cc2Cl)c1 | 2
Cc1ccc2c(c1)C(=O)/C(=C/c1c[nH]c3ccccc13)S2 | 2
Cc1cc(N=C2NC(=O)S/C2=C\c2ccc(F)cc2)n[nH]1 | 1
Cn1cc(-c2nnc(N)nc2-c2c[nH]c3ccccc23)c2cc(Br)cnc21 | 1

Where these numbers come from: PubChem BioAssay (NCI)
